# STUDY SYSTEM: VEGF-R2 (Rattus norvegicus, UniProt O08775)
# Construct: polyhistidine (N)
# Sequence (O08775 786-1343): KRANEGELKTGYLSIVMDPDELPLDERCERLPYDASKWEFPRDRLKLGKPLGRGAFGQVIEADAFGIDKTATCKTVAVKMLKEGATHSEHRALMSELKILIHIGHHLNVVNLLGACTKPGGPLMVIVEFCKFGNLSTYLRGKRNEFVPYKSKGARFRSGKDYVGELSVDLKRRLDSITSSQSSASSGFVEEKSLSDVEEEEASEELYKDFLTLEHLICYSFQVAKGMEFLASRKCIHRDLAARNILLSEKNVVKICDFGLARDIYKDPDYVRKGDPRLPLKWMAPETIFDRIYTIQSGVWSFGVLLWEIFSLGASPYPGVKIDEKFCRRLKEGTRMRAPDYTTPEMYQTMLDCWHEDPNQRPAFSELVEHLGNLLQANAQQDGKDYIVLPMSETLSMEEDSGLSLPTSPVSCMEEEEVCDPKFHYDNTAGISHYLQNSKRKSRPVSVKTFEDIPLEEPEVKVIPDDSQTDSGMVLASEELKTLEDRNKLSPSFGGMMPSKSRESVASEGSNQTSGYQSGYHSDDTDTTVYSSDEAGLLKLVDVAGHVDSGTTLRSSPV
# METHOD: VEGF-R2 Screening Assay
# Type: biochemical
# MEASUREMENT PARAMETERS: 33P-γ-ATP incorporation, 10 μM ATP
We label by threshold. Values of IC50 strictly beneath 0.6 µM are TRUE. Values of 0.6 µM and up are FALSE.

query: API: query returns whether the compound falls strictly under 0.6 µM in IC50. Query: `Cc1cc(O)ccc1Nc1nccc(-c2c[nH]c3ncccc23)n1`
result: FALSE

query: API: query returns whether the compound falls strictly under 0.6 µM in IC50. Query: `CNCCOc1ccc(Nc2nccc(-c3c[nH]c4ncccc34)n2)c(C)c1`
result: FALSE

query: API: query returns whether the compound falls strictly under 0.6 µM in IC50. Query: `c1cnc2[nH]cc(-c3ccnc(Nc4ccc(CCN5CCOCC5)cc4)n3)c2c1`
result: TRUE

query: API: query returns whether the compound falls strictly under 0.6 µM in IC50. Query: `CN1CCN(CCc2ccc(Nc3nccc(-c4c[nH]c5ncccc45)n3)cc2)CC1`
result: TRUE

query: API: query returns whether the compound falls strictly under 0.6 µM in IC50. Query: `Oc1ccccc1Nc1nccc(-c2c[nH]c3ncccc23)n1`
result: TRUE

query: API: query returns whether the compound falls strictly under 0.6 µM in IC50. Query: `Cc1cccc(Nc2nccc(-c3c[nH]c4ncccc34)n2)c1C`
result: FALSE

query: API: query returns whether the compound falls strictly under 0.6 µM in IC50. Query: `Cc1cc(CCN2CCCC2)ccc1Nc1nccc(-c2c[nH]c3ncccc23)n1`
result: FALSE

query: API: query returns whether the compound falls strictly under 0.6 µM in IC50. Query: `CC(=O)n1cc(-c2ccnc(NC3CCCCC3)n2)c2cccnc21`
result: FALSE

query: API: query returns whether the compound falls strictly under 0.6 µM in IC50. Query: `Cc1cc(CCN2CCOCC2)ccc1Nc1nccc(-c2c[nH]c3ncccc23)n1`
result: FALSE

query: API: query returns whether the compound falls strictly under 0.6 µM in IC50. Query: `COc1ccccc1Nc1nccc(-c2c[nH]c3ncccc23)n1`
result: FALSE

query: API: query returns whether the compound falls strictly under 0.6 µM in IC50. Query: `CNCCc1ccc(Nc2nccc(-c3c[nH]c4ncccc34)n2)cc1`
result: TRUE

query: API: query returns whether the compound falls strictly under 0.6 µM in IC50. Query: c1cnc2[nH]cc(-c3ccnc(N[C@@H]4CC5CCC4C5)n3)c2c1 (some centres unmarked)
result: FALSE

query: API: query returns whether the compound falls strictly under 0.6 µM in IC50. Query: `OCC[C@H]1CC[C@H](Nc2nccc(-c3c[nH]c4ncccc34)n2)CC1`
result: FALSE

query: API: query returns whether the compound falls strictly under 0.6 µM in IC50. Query: c1cnc2[nH]cc(-c3ccnc(N[C@H]4CC5CCC4C5)n3)c2c1 (some centres unmarked)
result: TRUE

query: API: query returns whether the compound falls strictly under 0.6 µM in IC50. Query: `COc1ccc(Nc2nccc(-c3c[nH]c4ncccc34)n2)cc1`
result: TRUE

query: API: query returns whether the compound falls strictly under 0.6 µM in IC50. Query: `CCc1ccccc1Nc1nccc(-c2c[nH]c3ncccc23)n1`
result: FALSE

query: API: query returns whether the compound falls strictly under 0.6 µM in IC50. Query: `Cc1ccccc1Nc1nccc(-c2c[nH]c3ncccc23)n1`
result: TRUE

query: API: query returns whether the compound falls strictly under 0.6 µM in IC50. Query: `CCN(CC)CCc1ccc(Nc2nccc(-c3c[nH]c4ncccc34)n2)c(C)c1`
result: FALSE

query: API: query returns whether the compound falls strictly under 0.6 µM in IC50. Query: `CC(=O)N1CCC(Nc2nccc(-c3c[nH]c4ncccc34)n2)CC1`
result: FALSE
